Biological target: LHRH rat pituitary receptor (Rattus norvegicus)
Construct: from tissue; host or cells: rat pituitary
Sequence (P30969 whole entry): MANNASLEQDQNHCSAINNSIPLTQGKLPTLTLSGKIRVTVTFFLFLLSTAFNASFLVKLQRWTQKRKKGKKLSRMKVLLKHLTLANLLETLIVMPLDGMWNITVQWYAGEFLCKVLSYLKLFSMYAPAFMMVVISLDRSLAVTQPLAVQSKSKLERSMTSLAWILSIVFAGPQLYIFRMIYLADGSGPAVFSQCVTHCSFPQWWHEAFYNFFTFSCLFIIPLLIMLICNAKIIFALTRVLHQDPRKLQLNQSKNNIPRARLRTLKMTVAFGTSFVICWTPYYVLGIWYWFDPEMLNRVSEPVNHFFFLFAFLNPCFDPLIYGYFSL
Assay: LHRH rat pituitary receptor binding (pKI)
Conditions: negative logarithm of the equilibrium dissociation constants, Table 1, read-out: receptor binding affinity (pKI) (converted)
Below, each entry is listed with its recorded Ki.
# output: bare number, implied unit pM

A selection of reference data follows.
Compound	Target Or System	Units	Ki
CC[C@H]1OC(=O)[C@H](C)[C@@H](O[C@H]2C[C@@](C)(OC)[C@@H](O)[C@H](C)O2)[C@H](C)[C@@H](O[C@@H]2O[C@H](C)C[C@H](N(C)CC3CC3)[C@H]2O)[C@](C)(OC)C[C@@H](C)C(=O)[C@H](C)[C@H]2N(CCc3ccc(F)c(Cl)c3)C(=O)O[C@]12C [Example 29]	LHRH rat pituitary receptor (Rattus norvegicus)	pM	537
CC[C@H]1OC(=O)[C@H](C)[C@@H](O[C@H]2C[C@@](C)(OC)[C@@H](O)[C@H](C)O2)[C@H](C)[C@@H](O[C@@H]2O[C@H](C)C[C@H](N(C)Cc3cccc(C)n3)[C@H]2O)[C@](C)(OC)C[C@@H](C)C(=O)[C@H](C)[C@H]2N(CCc3ccc(Cl)c(Cl)c3)C(=O)O[C@]12C [Example 70]	LHRH rat pituitary receptor (Rattus norvegicus)	pM	5890

Switching to the query record.
// fetch LHRH rat pituitary receptor (Rattus norvegicus) Ki for CC[C@H]1OC(=O)[C@H](C)[C@@H](O[C@H]2C[C@@](C)(OC)[C@@H](O)[C@H](C)O2)[C@H](C)[C@@H](O[C@@H]2O[C@H](C)C[C@H](N(C)C3CCCC3)[C@H]2O)[C@](C)(OC)C[C@@H](C)C(=O)[C@H](C)[C@H]2N(CCc3ccc(F)c(F)c3)C(=O)O[C@]12C [Example 31] 269

The measured values listed here are drawn from patent US5955440A.
